Molecular target: Phosphatidylinositol 4,5-bisphosphate 3-kinase catalytic subunit delta isoform (Homo sapiens)
Sequence (O00329 whole entry, canonical isoform): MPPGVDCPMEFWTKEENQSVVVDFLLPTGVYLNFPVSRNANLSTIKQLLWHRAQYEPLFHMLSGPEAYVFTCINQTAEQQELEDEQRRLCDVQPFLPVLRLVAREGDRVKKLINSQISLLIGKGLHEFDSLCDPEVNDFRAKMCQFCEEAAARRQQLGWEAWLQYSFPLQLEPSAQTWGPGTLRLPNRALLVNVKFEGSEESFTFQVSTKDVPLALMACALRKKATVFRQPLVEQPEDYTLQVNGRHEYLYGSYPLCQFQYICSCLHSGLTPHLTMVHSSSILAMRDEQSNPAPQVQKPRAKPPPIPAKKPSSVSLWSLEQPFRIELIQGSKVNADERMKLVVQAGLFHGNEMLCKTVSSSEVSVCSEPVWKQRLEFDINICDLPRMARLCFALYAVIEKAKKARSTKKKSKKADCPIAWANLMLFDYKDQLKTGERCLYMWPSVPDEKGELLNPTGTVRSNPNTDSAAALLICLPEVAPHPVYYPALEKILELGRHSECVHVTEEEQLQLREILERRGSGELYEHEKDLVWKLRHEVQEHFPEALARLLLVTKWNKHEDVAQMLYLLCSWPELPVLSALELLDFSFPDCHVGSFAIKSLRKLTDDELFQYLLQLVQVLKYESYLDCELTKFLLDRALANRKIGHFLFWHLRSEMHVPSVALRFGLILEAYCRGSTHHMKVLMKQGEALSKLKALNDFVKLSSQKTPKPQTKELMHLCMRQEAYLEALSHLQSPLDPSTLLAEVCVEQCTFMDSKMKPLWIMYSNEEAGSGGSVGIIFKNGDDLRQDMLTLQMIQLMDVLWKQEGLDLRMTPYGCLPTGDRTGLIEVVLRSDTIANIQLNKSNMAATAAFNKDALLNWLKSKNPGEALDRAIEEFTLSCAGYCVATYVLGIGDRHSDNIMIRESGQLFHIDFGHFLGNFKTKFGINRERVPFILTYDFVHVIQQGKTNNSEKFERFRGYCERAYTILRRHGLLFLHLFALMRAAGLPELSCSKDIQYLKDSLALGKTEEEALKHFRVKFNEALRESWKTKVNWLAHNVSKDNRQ
Assay: Inhibition of P13Kdelta (unknown origin) in the presence of ATP by scintillation proximity assay
# Lookup of reported IC50 keyed by entry

1) Cc1cc(S(=O)(=O)N[C@H]2CC[C@H](O)CC2)ccc1-c1cnc2c(N)c(Cl)ccn12 = ≤ 500 nM

I am curious: what IC50 value has been reported for Cc1nnc(-c2cc(-c3cc4c(c(S(C)(=O)=O)c3)C(=O)N([C@@H](C)C3CC3)C4)ccn2)[nH]1 ?
< 2000 nM

Looking for the measured IC50 of Cc1cc(C(O)(CO)C(F)F)ccc1-c1cnc(N)c(C(=O)N2CC[C@H](CO)C2)n1 (stereo partly drawn) , can you help?
< 2000 nM

Values were extracted from ChEMBL document CHEMBL5500425.
